system: Diabrotica balteata (Corn Root Worm); test: Diabrotica balteata, maize sprouts on agar, L2 larvae; assay type: in vivo; conditions: 96 h, application rate of 200 ppm, 4 days after infestation, read-out: effect in at least one of the two categories (mortality or growth inhibition)
Assign percent effect (mortality or growth inhibition) at 200 ppm to each entry below.

Example compounds with recorded percent effect (mortality or growth inhibition) at 200 ppm:
Output measured percent effect (mortality or growth inhibition) at 200 ppm for this item: CCn1c(C(F)(F)F)cc2nc(-c3nc(-c4ccncc4)ccc3S(=O)(=O)CC)n(C)c2c1=O [Compound P13]
≥ 80%

Output measured percent effect (mortality or growth inhibition) at 200 ppm for this item: CCn1c(C(F)(F)F)cc2nc(-c3nc(-c4cc(F)cc(Cl)c4)ccc3S(=O)(=O)CC)n(C)c2c1=O [Compound P19]
≥ 80%

Output measured percent effect (mortality or growth inhibition) at 200 ppm for this item: CCn1c(C(F)(F)F)cc2nc(-c3nc(-c4cccc(SC)c4)ccc3S(=O)(=O)CC)n(C)c2c1=O [Compound P29]
≥ 80%

Output measured percent effect (mortality or growth inhibition) at 200 ppm for this item: CCn1c(C(F)(F)F)cc2nc(-c3nc(-c4cc(C(F)(F)F)cc(C(F)(F)F)c4)ccc3S(=O)(=O)CC)n(C)c2c1=O [Compound P36]
≥ 80%

Output measured percent effect (mortality or growth inhibition) at 200 ppm for this item: CCn1c(C(F)(F)F)cc2nc(-c3nc(-c4ccccc4)ccc3S(=O)(=O)CC)n(C)c2c1=O [Compound P18]
≥ 80%

Output measured percent effect (mortality or growth inhibition) at 200 ppm for this item: CCS(=O)(=O)c1ccc(-n2cncn2)nc1-c1nc2cc(C(F)(F)F)n(C3CC3)c(=O)c2n1C [Compound P4]
≥ 80%

List percent effect (mortality or growth inhibition) at 200 ppm for every entry below, keeping the order given.
1. CCn1c(C(F)(F)F)cc2nc(-c3nc(-c4ccc(C(F)(F)F)nc4)ccc3S(=O)(=O)CC)n(C)c2c1=O [Compound P16]
2. CCn1c(C(F)(F)F)cc2nc(-c3nc(-c4cnco4)ccc3S(=O)(=O)CC)n(C)c2c1=O [Compound P38]
3. CCn1c(C(F)(F)F)cc2nc(-c3nc(C4CC4)ccc3S(=O)(=O)CC)n(C)c2c1=O [Compound P39]
4. CCn1c(C(F)(F)F)cc2nc(-c3nc(-c4ccc(Cl)c(Cl)c4)ccc3S(=O)(=O)CC)n(C)c2c1=O [Compound P10]
5. CCn1c(C(F)(F)F)cc2nc(-c3nc(-c4cc(F)ccc4F)ccc3S(=O)(=O)CC)n(C)c2c1=O [Compound P37]
6. CCn1c(C(F)(F)F)cc2nc(-c3nc(-c4cccc(Cl)c4)ccc3S(=O)(=O)CC)n(C)c2c1=O [Compound P17]
7. CCn1c(C(F)(F)F)cc2nc(-c3nc(-c4cccc(F)c4)ccc3S(=O)(=O)CC)n(C)c2c1=O [Compound P14]
8. CCn1c(C(F)(F)F)cc2nc(-c3nc(-c4ccc(F)c(F)c4)ccc3S(=O)(=O)CC)n(C)c2c1=O [Compound P34]

1: ≥ 80%; 2: ≥ 80%; 3: ≥ 80%; 4: ≥ 80%; 5: ≥ 80%; 6: ≥ 80%; 7: ≥ 80%; 8: ≥ 80%

Output measured percent effect (mortality or growth inhibition) at 200 ppm for this item: CCS(=O)(=O)c1ccc(-c2cc(F)cc(F)c2)nc1-c1nc2cc(C(F)(F)F)n(C3CC3)c(=O)c2n1C [Compound P41]
≥ 80%

----------
test system: Diabrotica balteata (Corn Root Worm); experiment: Diabrotica balteata, maize sprouts on agar, L2 larvae; assay type: in vivo; conditions: 96 h, application rate of 200 ppm, 4 days after infestation, read-out: effect in at least one of the two categories (mortality or growth inhibition)
Assign percent effect (mortality or growth inhibition) at 200 ppm to each entry below.

Output measured percent effect (mortality or growth inhibition) at 200 ppm for this item: `CCn1c(C(F)(F)F)cc2nc(-c3nc(-c4ccc(Cl)c(C)c4)ccc3S(=O)(=O)CC)n(C)c2c1=O`
≥ 80%

Output measured percent effect (mortality or growth inhibition) at 200 ppm for this item: `CCn1c(C(F)(F)F)cc2nc(-c3nc(-c4cccnc4)ccc3S(=O)(=O)CC)n(C)c2c1=O`
≥ 80%

Output measured percent effect (mortality or growth inhibition) at 200 ppm for this item: `C/C=C/c1ccc(S(=O)(=O)CC)c(-c2nc3cc(C(F)(F)F)n(CC)c(=O)c3n2C)n1`
≥ 80%

// moving on: another record for percent effect (mortality or growth inhibition) at 200 ppm
Output measured percent effect (mortality or growth inhibition) at 200 ppm for this item: `CCS(=O)(=O)c1ccc(-n2cc(C(F)(F)F)cn2)nc1-c1nc2cc(C(F)(F)F)n(C)c(=O)c2n1C`
≥ 80%
